Tested on: Streptococcus pneumoniae DP1 TypeI
Assay: Antibacterial activity test (agar dilution MIC)
Type: cell-based
Conditions: DP1TYPEI; test bacterium B = Streptococcus pneumoniae DP1 TypeI; blood agar medium, 37° C., about 20 hours; read-out: Minimum inhibitory concentration (MIC)
MIC: recorded values
Provide the reading as a plain figure in µg/mL.

// solved cases for MIC follow
Molecule	Unit Descriptor	Value Measured
CCC(=O)O[C@@H]1CC(=O)OCCC(/C=C/Cc2ccnc3ccccc23)CN(C)C[C@H](O)[C@H](C)C[C@H](CC=O)[C@H](O[C@@H]2OC(C)[C@@H](O)C(N(C)C)C2O)[C@H]1OC (stereo partly shown)	µg/mL	0.03
CCCC(=O)O[C@H]1C(C)O[C@@H](O[C@@H]2C(C)O[C@@H](O[C@H]3[C@@H](CC=O)C[C@@H](C)[C@@H](O)CN(C)CCC[C@H](C/C=C/c4cnc5ccccc5c4)OC(=O)C[C@@H](O)[C@@H]3OC)C(O)C2N(C)C)CC1(C)OC(=O)CC (stereo partly shown)	µg/mL	0.03
CCC(=O)OC1C(C)O[C@@H](O[C@@H]2C(C)O[C@@H](O[C@H]3[C@@H](CC=O)C[C@@H](C)[C@@H](O)CN(C)CCC(CCCc4cnc5ccccc5c4)NC(=O)C[C@@H](OC(=O)CC)[C@@H]3OC)C(O)C2N(C)C)CC1(C)O (stereo partly shown)	µg/mL	0.03

Kindly review the next molecule as well.
Task: // query MIC value for entry CCC(=O)O[C@@H]1CC(=O)NCCCCN(CCCCc2ccccc2)C[C@H](O)[C@H](C)C[C@H](CC=O)[C@H](O[C@@H]2OC(C)[C@@H](O[C@H]3CC(C)(OC(C)=O)[C@@H](OC(=O)CC)C(C)O3)C(N(C)C)C2O)[C@H]1OC (stereo partly shown)
Output: 0.13

----------
Test system: Streptococcus pneumoniae DP1 TypeI
Assay: Antibacterial activity test (agar dilution MIC)
Assay type: cell-based
Conditions: DP1TYPEI; test bacterium B = Streptococcus pneumoniae DP1 TypeI; blood agar medium, 37° C., about 20 hours; read-out: Minimum inhibitory concentration (MIC)
Value Kind: MIC (µg/mL)
I only need the number, in µg/mL, no unit after it.

Reference set, count: 3
Compound	MIC [µg/mL]
CCC(=O)O[C@@H]1CC(=O)O[C@H](C)CCCN(CCCCc2ccccc2)C[C@H](O)[C@H](C)C[C@H](CC=O)[C@H](O[C@@H]2OC(C)[C@@H](O[C@H]3CC(C)(OC(C)=O)[C@@H](OC(=O)CC)C(C)O3)C(N(C)C)C2O)[C@H]1OC (some centres unmarked)	0.06
CCC(=O)OC1C(C)O[C@@H](O[C@@H]2C(C)O[C@@H](O[C@H]3[C@@H](CC=O)C[C@@H](C)[C@@H](O)CN(CCCCc4ccccc4)CCCNC(=O)C[C@@H](OC(=O)CC)[C@@H]3OC)C(O)C2N(C)C)CC1(C)OC(C)=O (some centres unmarked)	0.13
CCC(=O)O[C@@H]1CC(=O)O[C@@H](C/C=C/c2ccc3ccccc3c2)CCCN(C)C[C@H](O)[C@H](C)C[C@H](CC=O)[C@H](O[C@@H]2OC(C)[C@@H](O[C@H]3CC(C)(OC(C)=O)[C@@H](OC(=O)CC)C(C)O3)C(N(C)C)C2O)[C@H]1OC (some centres unmarked)	0.06

Task: Hi! What's the reported MIC for CCC(=O)O[C@@H]1CC(=O)O[C@@H](C/C=C/c2cnc3ccccc3c2)CCCN(C)C[C@H](O)[C@H](C)C[C@H](CC=O)[C@H](O[C@@H]2OC(C)[C@@H](O[C@H]3CC(C)(OC(C)=O)[C@@H](OC(=O)CC)C(C)O3)C(N(C)C)C2O)[C@H]1OC (some centres unmarked) on Streptococcus pneumoniae DP1 TypeI?
Output: 0.015

Task: Entry to check: CCC(=O)O[C@@H]1CC(=O)OCCC(/C=C/Cc2ccnc3ccccc23)CN(C)C[C@H](O)[C@H](C)C[C@H](CC=O)[C@H](O[C@@H]2OC(C)[C@@H](O[C@H]3CC(C)(O)[C@@H](OC(=O)CC)C(C)O3)C(N(C)C)C2O)[C@H]1OC (single isomer, unassigned)
Output: 0.015
